# Tested on: blackgrass
# protocol-text: Test A preemergence
# Format: in vivo, Alopecurus myosuroides
# experimental-parameters: 125 g ai/ha, visual injury after 10 days, 0 to 100 scale, 0 is no effect, 100 is complete control
Plant response rating, Blackgrass by entry:
quantity-name: Plant response rating, Blackgrass

compound: Cc1cccc2c1O[C@@H](C)CN2C(=O)c1cccc(-n2cnc(C(C)C)n2)c1
quantity-name: Plant response rating, Blackgrass
reported: 80
--
compound: Cc1ccc(-n2cnc(C(C)C)n2)cc1C(=O)N1C[C@H](C)Oc2c(C)cccc21
quantity-name: Plant response rating, Blackgrass
reported: 80
--
compound: CC1CN(C(=O)c2cccc(-n3cncn3)c2)c2c(F)cccc2O1 (centres unmarked)
quantity-name: Plant response rating, Blackgrass
reported: 0
--
compound: Cc1cccc2c1O[C@@H](C)CN2C(=O)c1cccc(-n2cnc(C3CCCCC3)n2)c1
quantity-name: Plant response rating, Blackgrass
reported: 0
--
compound: CC1CN(C(=O)c2cc(-n3cncn3)ccc2F)c2cccc(Cl)c2O1 (centres unmarked)
quantity-name: Plant response rating, Blackgrass
reported: 0
--
compound: C[C@H]1CN(C(=O)c2cc(C3CC3)cc(-n3cncn3)c2)c2cccc(Cl)c2O1
quantity-name: Plant response rating, Blackgrass
reported: 70
--
compound: C[C@H]1CN(C(=O)c2cccc(-n3cncn3)c2)c2cccc(OC(F)(F)F)c2O1
quantity-name: Plant response rating, Blackgrass
reported: 20
--
compound: Cc1ccc(-n2cnc(Br)n2)cc1C(=O)N1C[C@H](C)Oc2c(Cl)cccc21
quantity-name: Plant response rating, Blackgrass
reported: 40
